Parameter protein stability index: see the listing below.
B1: STK38L (parent)
chain: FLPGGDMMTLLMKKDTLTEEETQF

Variants of: B1
Assay: protein stability index of a GFP-peptide fusion (GPS, HEK-293T) (PSI 1-6); higher = more stable;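 also: lentivirally expressed fusions sorted by FACS into six bins by GFP to DsRed ratio, PSI derived from sequencing read proportions per bin multiplied by bin number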
Settings: c terminus: a fixed tail appended
// no unit string in output, number only

Incoming: Tell me the measured protein stability index of D15N , please.
Outgoing: 2.23

Incoming: Tell me the measured protein stability index of D6V , please.
Outgoing: 2.33

Incoming: Tell me the measured protein stability index of L10N , please.
Outgoing: 4.26

Incoming: Tell me the measured protein stability index of E20G , please.
Outgoing: 1.6

Incoming: Tell me the measured protein stability index of D15A , please.
Outgoing: 1.62

Incoming: Tell me the measured protein stability index of F1G , please.
Outgoing: 4.51
